# Tested on: Influenza A and B
# Assay type: in vivo, mouse
# Experimental conditions: given as +(n), route and dose not specified
Given measured Mouse log10 reduction in virus titre (Average of 5 Mice), output yes if it is greater than or equal to 2 log10 and no if not.

Use the examples below as a reference point.
Nc1ncnc2c1ncn2[C@@H]1O[C@H](CO)[C@@H](O)[C@H]1F [Example 8] : yes
Nc1nc2c(ncn2[C@@H]2O[C@H](CO)[C@@H](O)[C@H]2F)c(=O)[nH]1 [Example 7] : yes
COc1nc(N)nc2c1ncn2[C@@H]1O[C@H](CO)[C@@H](O)[C@H]1F [Example 12] : no
Nc1nc(N)c2ncn([C@@H]3O[C@H](CO)[C@@H](O)[C@H]3F)c2n1 [Example 6] : yes

Query: Decide: Mouse log10 reduction in virus titre (Average of 5 Mice) of Nc1ncc2ncn([C@@H]3O[C@H](CO)[C@@H](O)[C@H]3F)c2n1 [Example 9] >= 2 log10?
Result: no
